# Test system: HEK-293T
# test protocol: Multiplex assay against HEK293T
# Assay type: toxicity, cell-based
# conditions used: human, 48 h, 10 µM, compound concentration 10 uM, replicate 2
Could you please report measured Population Healthy Nuclei (%) for the items listed next?
Numbers only, in %.

Use the examples below as a reference point.
[
  {
    "molecule": "Br.CS(=O)(=O)Nc1c(O)ccc2c1CCCC2C1=NCCN1 (centres undefined)",
    "Population Healthy Nuclei (%)": 79
  },
  {
    "molecule": "CC[C@@H](C)Nc1nc(C)nc2c(-c3ccc(OC)nc3C)c(C)nn12 [PEXACERFONT]",
    "Population Healthy Nuclei (%)": 72
  },
  {
    "molecule": "CN[C@@H](C)C(=O)N[C@H](C(=O)N1CCC[C@H]1C(=O)Nc1snnc1-c1ccccc1)C1CCCCC1 [GDC-0152]",
    "Population Healthy Nuclei (%)": 70
  },
  {
    "molecule": "CCc1cc2cc(NS(=O)(=O)c3ccc(C#N)cc3)ccc2n(CC)c1=O",
    "Population Healthy Nuclei (%)": 73
  },
  {
    "molecule": "Cc1cccc(NC(=O)CN2CCC(c3ccccn3)CC2)c1.Cl.Cl",
    "Population Healthy Nuclei (%)": 76
  }
]

Would you be so kind as to report Population Healthy Nuclei (%) for each listed record?
1. CCCOc1ccc2[nH]cc(C3=CCNCC3)c2n1.Cl
2. N#Cc1c(Oc2cccc(OS(=O)(=O)CCCC(F)(F)F)c2)cccc1C(F)(F)F
3. CCCCC(=O)N(Cc1ccc(-c2ccccc2-c2nnn[nH]2)cc1)[C@H](C(=O)O)C(C)C

Solution:
1. 80
2. 69
3. 78

Hello, I would appreciate it if you could give Population Healthy Nuclei (%) for each entry below.
1. CCCCC1=NC2(CCCC2)C(=O)N1Cc1ccc(-c2ccccc2-c2nnn[nH]2)cc1 [IRBESARTAN]
2. O=C(CCCc1ccccc1)Nc1nc2ccccc2c(=O)s1
3. O=C(NCCN1CCC(n2c(=O)[nH]c3cc(Cl)ccc32)CC1)c1ccc(F)cc1 [HALOPEMIDE]
4. Cl.N=C(N)NC(=O)Cc1c(Cl)cccc1Cl [GUANFACINE HYDROCHLORIDE]
5. Cc1noc(-c2ccc(-c3ccc(CC(=O)O)cc3)cc2)c1NC(=O)O[C@H](C)c1ccccc1Cl
6. NCCc1cn(S(=O)(=O)c2c(Cl)nc3sccn23)c2ccccc12.O=C(O)C(=O)O
7. CCC(=O)N1CCN(c2ccc(-n3c(=O)ccc4cnc5ccc(-c6cnc7ccccc7c6)cc5c43)cc2C(F)(F)F)CC1 [TORIN1]

Solution:
1: 80; 2: 77; 3: 74; 4: 80; 5: 74; 6: 47; 7: 56

Report Population Healthy Nuclei (%) for each item below.
1. COc1ccccc1N1CCN(C[C@@H](C(=O)NC(C)(C)C)c2ccccc2)CC1.Cl.Cl
2. Cc1c(CC(=O)O)c2cccnc2n1Cc1ccc(S(C)(=O)=O)cc1C(F)(F)F [FEVIPIPRANT]

Solution:
[76, 77]

Give one value of Population Healthy Nuclei (%) per listed molecule.
1. CCCCCC(O)/C=C/[C@H]1C(=O)CC(O)C1C/C=C\CCCC(=O)O (some centres undefined)
2. CC(C)c1noc(N2CCC(COc3ccc(-c4ccc(S(C)(=O)=O)cc4)nc3)CC2)n1 [GSK-1292263]

Solution:
1: 80; 2: 78

Origin of measurements: ChEMBL document CHEMBL5058577
